target: Human secretory PLA2 (Homo sapiens, UniProt P14555); assay: Secretory PLA2 inhibitory activity (diheptanoyl thio PC substrate, absorbance at 405 nm); details: diheptanoyl thio PC 1 mM, Triton X100 0.3 mM, pH 7.3, CaCl2 10 mM, 30 minutes, read-out: s-PLA2 Inhibition IC50
Sequence (P14555 21-144): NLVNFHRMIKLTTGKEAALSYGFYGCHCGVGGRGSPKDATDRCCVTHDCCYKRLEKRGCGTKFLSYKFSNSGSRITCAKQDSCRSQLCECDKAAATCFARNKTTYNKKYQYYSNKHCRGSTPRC
Counter-ions that a name gives are not always drawn.
Experimental endpoint: IC50 (µM)

{"columns": ["Molecule", "Measured target", "IC50 [µM]"],
 "data": [
  ["COc1c(C)c(OC(=O)c2c(C)c(C)c(OCCC(C)CCCC(C)C)c(C)c2OC)c(C)c(C)c1C(=O)O (stereo not shown)", "Human secretory PLA2 (Homo sapiens, UniProt P14555)", 50]
]}

(1) COc1c(C)c(OC(=O)c2c(C)c(C)c(OCCCOc3ccc(C(=O)O)cc3)c(C)c2OC)c(C)c(C)c1C(N)=O
(2) COc1c(C)c(OC(=O)c2c(C)c(C)c(OCCCNc3ccc(C(F)(F)F)cc3)c(C)c2OC)c(C)c(C)c1C(=O)O [Example 22, hydrochloride]
Data request: Compare 1 and 2 by numeric IC50 and name the larger one. When you have decided, please share the label of that item.
Data returned: 2
(2: 42 µM, 1: 0.22 µM)

###

target: Human secretory PLA2 (Homo sapiens); assay: Secretory PLA2 inhibitory activity (diheptanoyl thio PC substrate, absorbance at 405 nm); conditions: diheptanoyl thio PC 1 mM, Triton X100 0.3 mM, pH 7.3, CaCl2 10 mM, 30 minutes, read-out: s-PLA2 Inhibition IC50
Experimental endpoint: IC50 (µM)

(a) COc1c(C)c(OC(=O)c2c(C)c(C)c(OCCCN(S(=O)(=O)c3ccccc3)S(=O)(=O)c3ccccc3)c(C)c2OC)c(C)c(C)c1C(=O)O
(b) COc1c(C)c(OC(=O)c2c(C)c(C)c(OCCCCCCS(=O)(=O)c3ccc(F)cc3)c(C)c2OC)c(C)c(C)c1C(=O)O
(c) COc1c(C)c(OC(=O)c2c(C)c(C)c(OCCCN(S(C)(=O)=O)S(C)(=O)=O)c(C)c2OC)c(C)c(C)c1C(=O)O
(d) COc1c(C)c(OC(=O)c2c(C)c(C)c(OCc3ccccc3)c(C)c2OC)c(C)c(C)c1C(=O)O
Data request: Please give the order of these compounds when sorted by IC50, largest value leading. Output spec: a listing of the labels in the requested order.
Data returned: d, c, b, a

###

target: intracellular PLA2 (cytosolic PLA2, cPLA2) (Homo sapiens); assay: Intracellular PLA2 (cPLA2) inhibitory activity (14C-arachidonyl phosphatidylcholine substrate); assay type: biochemical; details: 2 μM radiolabelled phosphatidylcholine, 1 μM dioleoylglycerol, 1 mM CaCl2, pH 7.4; read-out: c-PLA2 Inhibition IC50
Sequence (P47712 whole entry): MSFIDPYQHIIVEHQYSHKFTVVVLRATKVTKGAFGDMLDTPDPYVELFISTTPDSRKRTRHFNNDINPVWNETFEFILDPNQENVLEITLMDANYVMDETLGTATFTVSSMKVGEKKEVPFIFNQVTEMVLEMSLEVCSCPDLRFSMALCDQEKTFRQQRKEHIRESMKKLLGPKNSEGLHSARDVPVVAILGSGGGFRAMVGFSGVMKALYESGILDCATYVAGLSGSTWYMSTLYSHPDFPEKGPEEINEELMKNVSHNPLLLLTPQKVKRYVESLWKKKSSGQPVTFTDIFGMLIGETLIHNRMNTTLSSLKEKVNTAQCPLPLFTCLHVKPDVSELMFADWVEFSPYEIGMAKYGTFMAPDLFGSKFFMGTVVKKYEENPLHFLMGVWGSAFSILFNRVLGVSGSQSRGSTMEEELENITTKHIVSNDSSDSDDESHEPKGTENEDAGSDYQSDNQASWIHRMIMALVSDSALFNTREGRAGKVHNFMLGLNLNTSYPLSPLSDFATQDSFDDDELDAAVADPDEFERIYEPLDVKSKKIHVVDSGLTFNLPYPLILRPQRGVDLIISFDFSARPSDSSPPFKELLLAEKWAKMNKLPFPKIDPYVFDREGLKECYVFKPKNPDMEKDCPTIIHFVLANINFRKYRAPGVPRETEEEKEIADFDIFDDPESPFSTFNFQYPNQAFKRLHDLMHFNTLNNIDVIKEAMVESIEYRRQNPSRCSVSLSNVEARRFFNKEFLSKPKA
Experimental endpoint: IC50 (µM)

{"columns": ["Structure notation", "Measured target", "Experimental endpoint", "Result number"],
 "data": [
  ["COc1c(C)c(OC(=O)c2c(C)c(C)c(OCCCN3CCN(c4ccc(F)cc4)CC3)c(C)c2OC)c(C)c(C)c1C(=O)O", "intracellular PLA2 (cytosolic PLA2, cPLA2) (Homo sapiens)", "IC50", 36],
  ["COc1c(C)c(OC(=O)c2c(C)c(C)c(OCCCOc3cccc(F)c3F)c(C)c2OC)c(C)c(C)c1C(=O)O", "intracellular PLA2 (cytosolic PLA2, cPLA2) (Homo sapiens)", "IC50", 6.6],
  ["COc1c(C)c(OC(=O)c2c(C)c(C)c(OCCCOc3cc4c(cc3C(c3ccccc3)c3ccccc3)OCO4)c(C)c2OC)c(C)c(C)c1C(=O)O", "intracellular PLA2 (cytosolic PLA2, cPLA2) (Homo sapiens)", "IC50", 1.5]
]}

(a) COc1c(C)c(OC(=O)c2c(C)c(C)c(OCCCN(S(C)(=O)=O)S(=O)(=O)c3ccccc3)c(C)c2OC)c(C)c(C)c1C(=O)O
(b) CCc1ccc(OCCCOc2c(C)c(C)c(C(=O)Oc3c(C)c(C)c(C(=O)O)c(OC)c3C)c(OC)c2C)cc1
Data request: Compare a and b by numeric IC50 and name the larger one. When you have decided, please share the label of that item.
Data returned: a
(a: 21 µM, b: 5.4 µM)

(A) COc1c(C)c(OC(=O)c2c(C)c(C)c(OCCCN(C)S(=O)(=O)c3ccccc3)c(C)c2OC)c(C)c(C)c1C(=O)O
(B) COc1c(C)c(OC(=O)c2c(C)c(C)c(OCCCOc3c(F)cccc3F)c(C)c2OC)c(C)c(C)c1C(=O)O
Data request: Compare A and B by numeric IC50 and name the larger one. When you have decided, please share the label of that item.
Data returned: A

###

target: Human secretory PLA2 (Homo sapiens, UniProt P14555); assay: Secretory PLA2 inhibitory activity (diheptanoyl thio PC substrate, absorbance at 405 nm); settings: diheptanoyl thio PC 1 mM, Triton X100 0.3 mM, pH 7.3, CaCl2 10 mM, 30 minutes, read-out: s-PLA2 Inhibition IC50
pIC50: −log10 of the molar value.
Experimental endpoint: pIC50

Some compounds with known pIC50 results, for comparison:
{"columns": ["Compound", "pIC50"],
 "data": [
  ["COc1c(C)c(OC(=O)c2c(C)c(C)c(OCCCOc3ccc(C(N)=O)cc3)c(C)c2OC)c(C)c(C)c1C(=O)O [Example 42]", 5.30],
  ["COc1c(C)c(OC(=O)c2c(C)c(C)c(OCCCOc3ccc(C)cc3)c(C)c2OC)c(C)c(C)c1C(=O)O [Example 29]", 4.92],
  ["COc1c(C)c(OC(=O)c2c(C)c(C)c(OCCCOc3ccc(Cl)cc3)c(C)c2OC)c(C)c(C)c1C(=O)O [Example 23]", 5.03],
  ["COc1c(C)c(OC(=O)c2c(C)c(C)c(OCCCN3CCN(c4ccc(F)cc4)CC3)c(C)c2OC)c(C)c(C)c1C(=O)O [Example 69]", 4.92],
  ["COc1c(C)c(OC(=O)c2c(C)c(C)c(OCCCCCCOc3ccc(Cl)cc3)c(C)c2OC)c(C)c(C)c1C(=O)O [Example 11]", 4.85],
  ["COC(=O)c1ccc(OCCCOc2c(C)c(C)c(C(=O)Oc3c(C)c(C)c(C(N)=O)c(OC)c3C)c(OC)c2C)cc1 [Example 46]", 6.13]
]}

(a) COc1ccc(OCCCOc2c(C)c(C)c(C(=O)Oc3c(C)c(C)c(C(=O)O)c(OC)c3C)c(OC)c2C)cc1OC [Example 20]
(b) COc1cccc(OC)c1OCCCOc1c(C)c(C)c(C(=O)Oc2c(C)c(C)c(C(=O)O)c(OC)c2C)c(OC)c1C [Example 40]
(c) COc1c(C)c(OC(=O)c2c(C)c(C)c(OCCCN(C(=O)c3ccccc3)C(=O)c3ccccc3)c(C)c2OC)c(C)c(C)c1C(=O)O [Example 62]
Data request: Arrange by pIC50, high to low. Output spec: a listing of the labels in the requested order.
Data returned: c, b, a

###

target: intracellular PLA2 (cytosolic PLA2, cPLA2) (Homo sapiens); assay: Intracellular PLA2 (cPLA2) inhibitory activity (14C-arachidonyl phosphatidylcholine substrate); settings: 2 μM radiolabelled phosphatidylcholine, 1 μM dioleoylglycerol, 1 mM CaCl2, pH 7.4; read-out: c-PLA2 Inhibition IC50
Where a name gives a salt, the structure may show the parent alone.
Experimental endpoint: IC50 (µM)

Some compounds with known IC50 results, for comparison:
{"columns": ["Compound", "IC50 [µM]"],
 "data": [
  ["COc1c(C)c(OC(=O)c2c(C)c(C)c(OCc3ccccc3)c(C)c2OC)c(C)c(C)c1C(=O)O [Example 9]", 33],
  ["COc1c(C)c(OC(=O)c2c(C)c(C)c(OCCCCCCS(=O)(=O)c3ccc(F)cc3)c(C)c2OC)c(C)c(C)c1C(=O)O [Example 6]", 12],
  ["COc1c(C)c(OC(=O)c2c(C)c(C)c(OCCCNc3ccc(C(F)(F)F)cc3)c(C)c2OC)c(C)c(C)c1C(=O)O [Example 22, hydrochloride]", 4.3],
  ["COc1ccccc1OCCCOc1c(C)c(C)c(C(=O)Oc2c(C)c(C)c(C(=O)O)c(OC)c2C)c(OC)c1C [Example 39]", 12]
]}

(a) COc1c(C)c(OC(=O)c2c(C)c(C)c(OCCC3=CCC4CC3C4(C)C)c(C)c2OC)c(C)c(C)c1C(=O)O (single isomer, unassigned) [Example 49]
(b) COc1c(C)c(OC(=O)c2c(C)c(C)c(OCCCOc3ccc(C(=O)O)cc3)c(C)c2OC)c(C)c(C)c1C(N)=O [Example 47]
Data request: Lab log: flag the item ( a or b ) with the smaller IC50 figure. When you have decided, please share the label of that item.
Data returned: a
(a: 4.1 µM, b: 22 µM)

###

biological target: Human secretory PLA2 (Homo sapiens); assay: Secretory PLA2 inhibitory activity (diheptanoyl thio PC substrate, absorbance at 405 nm); conditions: diheptanoyl thio PC 1 mM, Triton X100 0.3 mM, pH 7.3, CaCl2 10 mM, 30 minutes, read-out: s-PLA2 Inhibition IC50
Experimental endpoint: IC50 (µM)

Some compounds with known IC50 results, for comparison:
{"columns": ["Structure notation", "IC50 [µM]"],
 "data": [
  ["COc1c(C)c(OC(=O)c2c(C)c(C)c(OCCCSc3ccc(F)cc3)c(C)c2OC)c(C)c(C)c1C(=O)O", 13],
  ["COc1c(C)c(OC(=O)c2c(C)c(C)c(OCCCN(S(=O)(=O)c3ccc(F)cc3)S(=O)(=O)c3ccc(F)cc3)c(C)c2OC)c(C)c(C)c1C(=O)O", 6.8],
  ["COc1c(C)c(OC(=O)c2c(C)c(C)c(OCCCOc3ccc(Br)cc3)c(C)c2OC)c(C)c(C)c1C(=O)O", 4.6],
  ["COc1c(C)c(OC(=O)c2c(C)c(C)c(OCCCOc3ccc(C(N)=O)cc3)c(C)c2OC)c(C)c(C)c1C(N)=O", 0.29],
  ["COc1c(C)c(OC(=O)c2c(C)c(C)c(OCCCN3CCN(C(c4ccccc4)c4ccccc4)CC3)c(C)c2OC)c(C)c(C)c1C(=O)O", 17],
  ["COc1c(C)c(OC(=O)c2c(C)c(C)c(OCCCNS(=O)(=O)c3ccccc3)c(C)c2OC)c(C)c(C)c1C(=O)O", 17]
]}

(A) COc1c(C)c(OC(=O)c2c(C)c(C)c(OCCCN(C(=O)OC(C)(C)C)S(C)(=O)=O)c(C)c2OC)c(C)c(C)c1C(=O)O
(B) COc1c(C)c(OC(=O)c2c(C)c(C)c(OCCCN3C(=O)c4ccccc4C3=O)c(C)c2OC)c(C)c(C)c1C(=O)O
Data request: Compare A and B by numeric IC50 and name the larger one. When you have decided, please share the label of that item.
Data returned: A
(A: 11 µM, B: 6.4 µM)

(a) COc1c(C)c(OC(=O)c2c(C)c(C)c(OCCCOc3ccc(F)cc3)c(C)c2OC)c(C)c(C)c1C(N)=O
(b) COc1c(C)c(OC(=O)c2c(C)c(C)c(OCCCCCCOc3ccc(F)cc3)c(C)c2OC)c(C)c(C)c1C(=O)O
(c) COc1c(C)c(OC(=O)c2c(C)c(C)c(OCCCCCCSc3ccc(F)cc3)c(C)c2OC)c(C)c(C)c1C(=O)O
(d) COc1c(C)c(OC(=O)c2c(C)c(C)c(OCCCOc3ccc(F)cc3)c(C)c2OC)c(C)c(C)c1C(=O)O
(e) COc1ccc(OCCCOc2c(C)c(C)c(C(=O)Oc3c(C)c(C)c(C(=O)O)c(OC)c3C)c(OC)c2C)cc1
Data request: Arrange by IC50, high to low. Output spec: a listing of the labels in the requested order.
Data returned: c, b, d, e, a
(c: 47 µM, b: 27 µM, d: 18 µM, e: 12 µM, a: 0.94 µM)
